- Test Details: Solubility testing
- Assay type: physicochemical
- Assay Conditions: pH 4.5
Kindly state Solubility pH 4.5 for each of the entries shown.

# return recorded Solubility pH 4.5 for input Cc1ncsc1-c1ccc(CNC(=O)[C@@H]2C[C@@H](O)CN2C(=O)[C@@H](NC(=O)C2(F)CC2)C(C)(C)C)c(OCCN2CCC(c3ccc4c(c3)n(C3CCCC3)c3nc(=O)c5c(Br)cccc5n43)CC2)c1
<1.000 <1.000 <1.000 <1.000 <1.000 ug/mL

# return recorded Solubility pH 4.5 for input Cc1ncsc1-c1ccc([C@H](COCCCN2CCC(c3ccc4c(c3)n(C3CCCC3)c3nc(=O)c5c(Br)cccc5n43)CC2)NC(=O)[C@@H]2C[C@@H](O)CN2C(=O)[C@@H](NC(=O)C2(F)CC2)C(C)(C)C)cc1
<1.000 <1.000 ug/mL

# return recorded Solubility pH 4.5 for input CN1CCC(c2ccc3c(c2)n(C2CCCC2)c2nc(=O)c4c(Br)cccc4n32)CC1
> 100.000 ug/mL

# return recorded Solubility pH 4.5 for input Cc1ncsc1-c1ccc(CNC(=O)[C@@H]2C[C@@H](O)CN2C(=O)[C@@H](NC(=O)C2(F)CC2)C(C)(C)C)c(OCCCCN2CCC(c3ccc4c(c3)n(C3CCCC3)c3nc(=O)c5c(Br)cccc5n43)CC2)c1
<1.000 ug/mL

# return recorded Solubility pH 4.5 for input Cc1ncsc1-c1ccc([C@H](CCC(C)(C)CCN2CCC(c3ccc4c(c3)n(C3CCCC3)c3nc(=O)c5c(Br)cccc5n43)CC2)NC(=O)[C@@H]2C[C@@H](O)CN2C(=O)[C@@H](NC(=O)C2(F)CC2)C(C)(C)C)cc1
<1.000 ug/mL

# return recorded Solubility pH 4.5 for input Cc1ncsc1-c1ccc([C@H](CCCCN2CCC(c3ccc4c(c3)n(C3CCCC3)c3nc(=O)c5c(Br)cccc5n43)CC2)NC(=O)[C@@H]2C[C@@H](O)CN2C(=O)[C@@H](NC(=O)C2(F)CC2)C(C)(C)C)cc1
<1.000 ug/mL

# return recorded Solubility pH 4.5 for input Cc1ncsc1-c1ccc([C@@H](COCCN2CCC(c3ccc4c(c3)n(C3CCCC3)c3nc(=O)c5c(Br)cccc5n43)CC2)NC(=O)[C@@H]2C[C@@H](O)CN2C(=O)[C@@H](NC(=O)C2(F)CC2)C(C)(C)C)cc1
<1.000 <1.000 ug/mL

# return recorded Solubility pH 4.5 for input CN1CCN(c2nc(=O)c3c(Br)cccc3o2)CC1
>83.000 ug/mL

# return recorded Solubility pH 4.5 for input CN1CCN(c2nc(=O)c3c(Cl)cccc3o2)CC1
>70.000 ug/mL

# return recorded Solubility pH 4.5 for input Cc1ncsc1-c1ccc(CNC(=O)[C@@H]2C[C@H](O)CN2C(=O)[C@@H](NC(=O)C2(F)CC2)C(C)(C)C)c(OCCN2CCC(c3ccc4c(c3)n(C3CCCC3)c3nc(=O)c5c(Br)cccc5n43)CC2)c1
<1.000 ug/mL

# return recorded Solubility pH 4.5 for input CN1CCN(c2nc(=O)c3c(I)cccc3o2)CC1
>97.000 ug/mL

# return recorded Solubility pH 4.5 for input Cc1ncsc1-c1ccc([C@H](CC[C@@H](C)CCN2CCC(c3ccc4c(c3)n(C3CCCC3)c3nc(=O)c5c(Br)cccc5n43)CC2)NC(=O)[C@@H]2C[C@@H](O)CN2C(=O)[C@@H](NC(=O)C2(F)CC2)C(C)(C)C)cc1
<1.000 <1.000 ug/mL
